Cited source: patent US7776862B2

SYSTEM_NAME: human CXCR3 (N-delta 4) (Homo sapiens)
Construct: CD8 leader; Flag tag; expressed in transfected cells; membranes used
Sequence (P49682 5-368 limits assumed): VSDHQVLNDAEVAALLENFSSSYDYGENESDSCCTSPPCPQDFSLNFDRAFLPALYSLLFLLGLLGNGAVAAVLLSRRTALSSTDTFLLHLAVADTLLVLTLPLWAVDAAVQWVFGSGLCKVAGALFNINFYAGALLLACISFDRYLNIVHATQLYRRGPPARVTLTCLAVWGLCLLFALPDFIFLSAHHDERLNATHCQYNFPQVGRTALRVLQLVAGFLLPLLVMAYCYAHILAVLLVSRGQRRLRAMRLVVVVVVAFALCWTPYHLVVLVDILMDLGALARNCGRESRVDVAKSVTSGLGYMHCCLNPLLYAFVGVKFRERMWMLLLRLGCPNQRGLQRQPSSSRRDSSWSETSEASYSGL
PROTOCOL_TEXT: Human CXCR3 (N-delta 4) scintillation proximity assay (SPA), [125I] IP-10 binding
RUN_CONDITIONS: IC50 rating; Ba/F3-hCXCR3 (N-delta 4) membranes, 25 pM [125I] IP-10
We begin with a simple list: items and their reported IC50.

Req: Looking for the measured IC50 of CC(c1ccc(Cl)cc1)N1CCC(N2CCN(c3ncc(C(=O)NCc4ccc(Cl)c(Cl)c4)cc3Cl)CC2)CC1 (stereo not drawn) , can you help?
Resp: > 100 nM

Req: # IC50 lookup, item O=C(NCc1ccc(Cl)c(Cl)c1)c1cnc(N2CCN(C3CCN(Cc4ccc(Cl)cc4)CC3)CC2)c(Cl)c1
Resp: 25 to 100 nM

Req: Field request: IC50 | item: O=C(NCc1ccc(Cl)cc1)c1cnc(N2CCN(C3CCN(Cc4ccc([N+](=O)[O-])cc4)CC3)CC2)c(Cl)c1
Resp: 25 to 100 nM
